test system: KIT (human), P10721 [V559D]; experiment: KINOMEscan competition binding; conditions: compound 10.0 µM
Sequence (P10721 whole entry V559D, looked up): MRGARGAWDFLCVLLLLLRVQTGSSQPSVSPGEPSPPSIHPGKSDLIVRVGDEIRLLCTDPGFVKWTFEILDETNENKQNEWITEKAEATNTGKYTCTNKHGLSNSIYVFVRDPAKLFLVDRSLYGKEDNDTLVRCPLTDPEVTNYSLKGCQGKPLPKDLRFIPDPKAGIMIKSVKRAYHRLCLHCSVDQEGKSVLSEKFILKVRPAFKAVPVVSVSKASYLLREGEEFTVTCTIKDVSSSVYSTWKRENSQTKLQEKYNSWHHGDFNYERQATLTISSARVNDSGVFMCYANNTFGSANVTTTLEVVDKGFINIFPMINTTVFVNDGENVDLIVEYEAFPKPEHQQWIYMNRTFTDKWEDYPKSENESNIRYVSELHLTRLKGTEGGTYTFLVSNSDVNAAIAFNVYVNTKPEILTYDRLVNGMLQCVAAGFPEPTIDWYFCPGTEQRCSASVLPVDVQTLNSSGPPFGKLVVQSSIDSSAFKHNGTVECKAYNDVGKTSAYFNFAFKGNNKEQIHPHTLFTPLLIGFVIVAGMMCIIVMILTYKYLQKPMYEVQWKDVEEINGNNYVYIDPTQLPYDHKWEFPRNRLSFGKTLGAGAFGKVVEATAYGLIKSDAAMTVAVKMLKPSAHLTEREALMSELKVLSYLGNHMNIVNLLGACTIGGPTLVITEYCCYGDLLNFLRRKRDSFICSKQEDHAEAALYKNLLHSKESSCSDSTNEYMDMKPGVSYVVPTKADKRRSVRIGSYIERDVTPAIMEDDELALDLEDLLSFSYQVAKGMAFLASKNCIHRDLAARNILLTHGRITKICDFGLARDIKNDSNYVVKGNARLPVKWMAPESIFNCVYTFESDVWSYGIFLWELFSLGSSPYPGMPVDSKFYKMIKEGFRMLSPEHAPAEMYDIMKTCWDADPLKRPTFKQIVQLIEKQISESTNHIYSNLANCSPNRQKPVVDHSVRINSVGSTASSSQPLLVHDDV
Entries whose kinase still bound, per cent of control is below 70% take fulfilled; entries at or above 70% take not fulfilled.

entry smiles | qualitative label
COc1cc(N2CCC(O)CC2)ccc1Nc1ncc2c(n1)N1CCc3cccc(c31)C(=O)N2C | not fulfilled
CS(=O)(=O)Nc1ccc(-c2cncc(/C=C3\SC(=N)NC3=O)c2)cc1 | fulfilled
COc1cc(N2CCN(C)CC2)ccc1Nc1ncc2c(n1)Nc1ccccc1NC2=O | fulfilled
COc1cc(N2CCN(C)CC2)ccc1Nc1ncc2c(n1)N(c1ccccc1)CCC(=O)N2 | fulfilled
CS(=O)(=O)Nc1ccc(-c2cc(/C=C3\SC(=N)NC3=O)c[nH]c2=O)cc1 | fulfilled
COc1cc(N2CCN(C)CC2)ccc1Nc1ncc2c(n1)N1CCC[C@H]1CC(=O)N2 | fulfilled
COc1cc(N2CCN(C)CC2)ccc1Nc1ncc2c(n1)N(C)c1ccccc1N(C)C2=O | not fulfilled
CN1CCN(c2ccc(C(=O)Nc3ncc4c(n3)N(C)c3ccccc3C(=O)N4C)cc2)CC1 | not fulfilled

----------
target: SIK2 (human); assay: KINOMEscan competition binding; conditions: compound 10.0 µM

compound | kinase still bound, per cent of control
CS(=O)(=O)Nc1ccc(-c2cncc(/C=C3\SC(=N)NC3=O)c2)cc1 | 24%
COc1cc(N2CCN(C)CC2)ccc1Nc1ncc2c(n1)N(C1CCCC1)C(C)CC(=O)N2 (centres undefined) | 26%
CN1C(=O)c2ccccc2N(C)c2nc(NS(=O)(=O)c3ccc(N)cc3)ncc21 | 89%
COc1cc(N2CCN(C)CC2)ccc1Nc1ncc2c(n1)N(c1ccccc1)CCC(=O)N2 | 26%

----------
target: LIMK1 (human); assay: KINOMEscan competition binding; settings: compound 10.0 µM
endpoint label: kinase still bound, per cent of control

entry smiles | result
CN1C(=O)c2ccccc2N(C)c2nc(Nc3ccc(N4CCC(O)CC4)cc3)ncc21 | 97%
CN1C(=O)c2ccccc2N(C)c2nc(NS(=O)(=O)c3ccc(N)cc3)ncc21 | 100%
COc1cc(N2CCN(C)CC2)ccc1Nc1ncc2c(n1)N(C)c1sccc1C(=O)N2C | 100%
COc1cc(N2CCN(C)CC2)ccc1Nc1ncc2c(n1)N(C)c1ccccc1N(C)C2=O | 95%
COc1cc(N2CCC(O)CC2)ccc1Nc1ncc2c(n1)N1CCc3cccc(c31)C(=O)N2C | 96%
COc1cc(N2CCN(C)CC2)ccc1Nc1ncc2c(n1)Nc1ccccc1NC2=O | 100%
O=C1NC(=O)/C(=C/c2c[nH]c(=O)c(-c3ccc(N4CCNCC4)nc3)c2)S1 | 94%
CN1CCN(c2ccc(C(=O)Nc3ncc4c(n3)N(C)c3ccccc3C(=O)N4C)cc2)CC1 | 100%

----------
biological target: HIPK2 (human)
Entries whose IC50 is below 200 nM take satisfied; entries at or above 200 nM take not satisfied.

entry smiles | qualitative label
N=C1NC(=O)/C(=C/c2c[nH]c(=O)c(-c3ccc4cc[nH]c4c3)c2)S1 | not satisfied
Nc1ccc(-c2cc(/C=C3\SC(=O)NC3=O)c[nH]c2=O)cn1 | not satisfied
Nc1cccc(-c2cc(/C=C3\SC(=O)NC3=O)c[nH]c2=O)c1 | satisfied
O=C1NC(=O)/C(=C/c2c[nH]c(=O)c(-c3ccc(N4CCNCC4)nc3)c2)S1 | satisfied
O=C1NC(=O)/C(=C/c2c[nH]c(=O)c(-c3ccc(N4CCC(N5CCCC5)CC4)nc3)c2)S1 | not satisfied

----------
target: UniProt P53355
Sequence (P53355 whole entry, looked up): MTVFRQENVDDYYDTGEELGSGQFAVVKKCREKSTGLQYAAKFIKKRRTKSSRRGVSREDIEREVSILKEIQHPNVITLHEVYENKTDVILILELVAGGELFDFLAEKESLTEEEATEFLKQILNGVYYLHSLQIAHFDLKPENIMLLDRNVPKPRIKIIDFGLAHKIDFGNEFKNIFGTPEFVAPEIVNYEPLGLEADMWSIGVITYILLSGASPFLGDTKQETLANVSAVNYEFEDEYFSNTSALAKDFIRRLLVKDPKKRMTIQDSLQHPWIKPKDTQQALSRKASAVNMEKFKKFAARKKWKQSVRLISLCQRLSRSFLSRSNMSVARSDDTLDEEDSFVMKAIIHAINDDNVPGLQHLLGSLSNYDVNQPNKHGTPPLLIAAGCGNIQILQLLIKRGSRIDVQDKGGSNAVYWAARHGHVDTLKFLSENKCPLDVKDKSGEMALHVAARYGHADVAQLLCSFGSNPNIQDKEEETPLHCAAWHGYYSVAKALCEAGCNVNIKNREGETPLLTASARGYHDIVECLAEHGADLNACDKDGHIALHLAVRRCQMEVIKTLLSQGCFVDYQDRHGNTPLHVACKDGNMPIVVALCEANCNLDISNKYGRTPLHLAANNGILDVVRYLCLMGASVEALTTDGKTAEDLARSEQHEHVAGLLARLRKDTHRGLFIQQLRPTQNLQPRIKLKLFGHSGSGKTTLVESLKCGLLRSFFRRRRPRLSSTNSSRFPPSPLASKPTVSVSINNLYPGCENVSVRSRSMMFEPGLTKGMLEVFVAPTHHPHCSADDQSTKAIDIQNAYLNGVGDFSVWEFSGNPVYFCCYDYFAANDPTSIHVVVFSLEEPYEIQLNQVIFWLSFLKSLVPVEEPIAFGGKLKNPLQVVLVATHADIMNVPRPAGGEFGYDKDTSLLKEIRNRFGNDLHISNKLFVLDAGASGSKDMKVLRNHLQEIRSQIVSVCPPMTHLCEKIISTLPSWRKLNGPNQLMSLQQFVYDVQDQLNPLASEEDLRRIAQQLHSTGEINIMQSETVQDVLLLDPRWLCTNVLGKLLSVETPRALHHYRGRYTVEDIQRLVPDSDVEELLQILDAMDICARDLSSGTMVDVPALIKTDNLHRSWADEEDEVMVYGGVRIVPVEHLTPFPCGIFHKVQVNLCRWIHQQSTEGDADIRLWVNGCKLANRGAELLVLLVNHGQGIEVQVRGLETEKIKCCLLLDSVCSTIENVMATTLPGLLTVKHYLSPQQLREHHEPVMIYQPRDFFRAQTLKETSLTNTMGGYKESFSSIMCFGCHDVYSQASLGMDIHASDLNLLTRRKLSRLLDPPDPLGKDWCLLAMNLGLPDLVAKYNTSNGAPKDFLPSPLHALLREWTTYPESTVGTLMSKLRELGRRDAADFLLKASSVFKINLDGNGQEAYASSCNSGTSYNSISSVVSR
endpoint label: Kd (nM)

entry smiles | endpoint label | u | recorded number
O=C1NC(=O)/C(=C/c2c[nH]c(=O)c(-c3ccc(N4CCNCC4)nc3)c2)S1 | Kd | nM | 9.5

----------
target: GAK (human); assay: KINOMEscan competition binding; conditions: compound 10.0 µM

compound | u | kinase still bound, per cent of control
COc1cc(N2CCC(N3CCN(C)CC3)CC2)ccc1Nc1ncc2c(n1)N(C1CCCC1)C(C)CC(=O)N2C (centres undefined) | % | 1.6
CN1C(=O)[C@H]2CCC[C@H]2N(C2CCCC2)c2nc(Nc3ccc4ncccc4c3)ncc21 | % | 1.8
COc1cc(N2CCN(C)CC2)ccc1Nc1ncc2c(n1)N(C)c1ccccc1N(C)C2=O | % | 45
Nc1cccc(-c2cc(/C=C3\SC(=O)NC3=O)c[nH]c2=O)c1 | % | 9.2
CN1C(=O)c2ccccc2N(C)c2nc(NS(=O)(=O)c3ccc(N)cc3)ncc21 | % | 100
COc1cc(N2CCC(N3CCN(C)CC3)CC2)ccc1Nc1ncc2c(n1)N(C1CCCC1)C(C)CC(=O)N2 (centres undefined) | % | 1.2
O=C1NC(=O)/C(=C/c2ccc(-c3ccc(F)cc3O)o2)S1 | % | 9.3
N=C1NC(=O)/C(=C/c2ccc(-c3cncc4ccccc34)o2)S1 | % | 0.9
N=C1NC(=O)/C(=C/c2ccc(-c3ccc(C(=O)Nc4ccc(N5CCNCC5)cc4)cc3O)o2)S1 | % | 29
N=C1NC(=O)/C(=C/c2c[nH]c(=O)c(-c3ccc(N4CCNCC4)nc3)c2)S1 | % | 30
COc1cc(N2CCN(C)CC2)ccc1Nc1ncc2c(n1)N1CCC[C@H]1CC(=O)N2 | % | 0.85
CN1C(=O)c2ccccc2N(C)c2nc(Nc3ccc(N4CCC(O)CC4)cc3)ncc21 | % | 37
COc1cc(N2CCN(C)CC2)ccc1Nc1ncc2c(n1)N(C)c1ccccc1C(=O)N2 | % | 3.8
COc1cc(C(=O)NC2CCN(C)CC2)ccc1Nc1ncc2c(n1)N(C1CCCC1)CC(C)C(=O)N2C (centres undefined) | % | 3.2
COc1cc(N2CCN(CCO)CC2)ccc1Nc1ncc2c(n1)N(C1CCCC1)CCC(=O)N2C | % | 1.4
CN1CCN(c2ccc(C(=O)Nc3ncc4c(n3)N(C)c3ccccc3C(=O)N4C)cc2)CC1 | % | 100
CS(=O)(=O)Nc1ccc(-c2ncc(/C=C3\SC(=N)NC3=O)s2)cc1 | % | 2.8
CCOc1cc(N2CCC(O)CC2)ccc1Nc1ncc2c(n1)N(C1CCCC1)CCC(=O)N2CC | % | 8.2
CC(C)Oc1cc(N2CCC(O)CC2)ccc1Nc1ncc2c(n1)N(C1CCCC1)CCC(=O)N2C | % | 29

----------
molecular target: ANKK1 (human); test: KINOMEscan competition binding; settings: compound 10.0 µM
Entries whose kinase still bound, per cent of control is below 30% take met; entries at or above 30% take not met.

entry smiles | qualitative label
CN1CCN(c2ccc(C(=O)Nc3ncc4c(n3)N(C)c3ccccc3C(=O)N4C)cc2)CC1 | met
N=C1NC(=O)/C(=C/c2ccc(-c3ccc4c(C(=O)Nc5ccc(N6CCNCC6)cc5)cccc4c3)o2)S1 | met
COc1cc(N2CCN(C)CC2)ccc1Nc1ncc2c(n1)N(C)c1sccc1C(=O)N2C | met
COc1cc(N2CCN(C)CC2)ccc1Nc1ncc2c(n1)Nc1ccccc1NC2=O | not met
CN1C(=O)c2ccccc2N(C)c2nc(NS(=O)(=O)c3ccc(N)cc3)ncc21 | not met
COc1cc(N2CCC(O)CC2)ccc1Nc1ncc2c(n1)N1CCc3cccc(c31)C(=O)N2C | not met
O=C1NC(=O)/C(=C/c2c[nH]c(=O)c(-c3ccc(N4CCNCC4)nc3)c2)S1 | not met
CN1C(=O)[C@H]2CCC[C@H]2N(C2CCCC2)c2nc(Nc3ccc(C(N)=O)cc3)ncc21 | met
NS(=O)(=O)c1ccc(-c2ccc(/C=C3\SC(=S)N(CC(=O)O)C3=O)o2)cc1 | not met
O=C1NC(=S)S/C1=C\c1ccc(-c2cncc3ccccc23)o1 | not met
COc1cc(N2CCN(C)CC2)ccc1Nc1ncc2c(n1)N(C)c1ccccc1N(C)C2=O | not met
CN1C(=O)c2ccccc2N(C)c2nc(Nc3ccc(N4CCC(O)CC4)cc3)ncc21 | not met

----------
target: RIPK2 (human); experiment: KINOMEscan competition binding; details: compound 10.0 µM
Entries whose kinase still bound, per cent of control is below 30% take True; entries at or above 30% take False.

entry smiles | qualitative label
N=C1NC(=O)/C(=C/c2ccc(-c3cnc4ccccc4c3)o2)S1 | True
CS(=O)(=O)Nc1ccc(-c2cc(/C=C3\SC(=N)NC3=O)c[nH]c2=O)cc1 | True
COc1cc(N2CCN(C)CC2)ccc1Nc1ncc2c(n1)Nc1ccccc1NC2=O | False
N=C1NC(=O)/C(=C/c2c[nH]c(=O)c(-c3ccc(N4CCNCC4)nc3)c2)S1 | True
COc1cc(N2CCC(O)CC2)ccc1Nc1ncc2c(n1)N1CCc3cccc(c31)C(=O)N2C | False
N=C1NC(=O)/C(=C/c2ccc(-c3ccc(F)cc3O)o2)S1 | False

----------
biological target: SLK (human); experiment: KINOMEscan competition binding; settings: compound 10.0 µM

compound | kinase still bound, per cent of control, %
COc1cc(C(=O)NC2CCN(C)CC2)ccc1Nc1ncc2c(n1)N(C1CCCC1)CC(C)C(=O)N2C (stereo not drawn) | 2
CN1CCN(c2ccc(C(=O)Nc3ncc4c(n3)N(C)c3ccccc3C(=O)N4C)cc2)CC1 | 100
COc1cc(N2CCN(C)CC2)ccc1Nc1ncc2c(n1)N(C)c1ccccc1N(C)C2=O | 100

These entries and their values trace back to the kinase profiling compilation of Christmann-Franck et al. (2016).
